Molecular target: M-phase inducer phosphatase 1 (Homo sapiens)
Assay: Mixed type inhibition of human recombinant full length GST-tagged CDC25A transfected in Escherichia coli BL21-DE3 assessed as enzyme/inhibitor complex using 3-O-methylfluorescein phosphate as substrate at 5 uM incubated for 20 mins followed by substrate addition measured every 10 mins for 2 hrs by fluorimetric assay
ASSAY_METRIC: Ki

{"columns": ["SMILES_STR", "TESTED_SYSTEM", "RESULT"],
 "data": [
  ["COc1ccc(/C=C2/S/C(=N\\c3nc4cc(-c5ccc(Cl)cc5)sc4s3)NC2=O)cc1", "M-phase inducer phosphatase 1 (Homo sapiens)", "37.1 µM"]
]}

----------
Target: M-phase inducer phosphatase 1 (Homo sapiens, UniProt P30304)
Sequence (P30304 whole entry): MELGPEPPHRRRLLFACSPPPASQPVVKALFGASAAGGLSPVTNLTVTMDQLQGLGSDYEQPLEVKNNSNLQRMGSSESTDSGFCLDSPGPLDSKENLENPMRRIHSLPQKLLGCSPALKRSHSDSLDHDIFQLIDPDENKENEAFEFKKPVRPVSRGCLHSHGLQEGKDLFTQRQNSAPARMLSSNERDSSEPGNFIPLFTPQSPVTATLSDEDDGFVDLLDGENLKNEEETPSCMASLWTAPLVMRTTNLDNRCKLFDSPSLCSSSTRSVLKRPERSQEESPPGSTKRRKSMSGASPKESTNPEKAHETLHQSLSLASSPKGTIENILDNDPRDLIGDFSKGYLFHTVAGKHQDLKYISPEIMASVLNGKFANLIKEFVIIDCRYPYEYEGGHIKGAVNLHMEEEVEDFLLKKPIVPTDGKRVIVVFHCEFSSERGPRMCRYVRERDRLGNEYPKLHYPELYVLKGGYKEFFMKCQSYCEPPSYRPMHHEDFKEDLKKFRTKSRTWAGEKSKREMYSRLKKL
Experiment: Inhibition of human recombinant full length GST-tagged CDC25A transfected in Escherichia coli BL21-DE3 using 3-O-methylfluorescein phosphate as substrate incubated for 20 mins followed by substrate addition measured every 10 mins for 2 hrs by fluorimetric assay
pIC50: −log10 of the molar value.

{"columns": ["SMILES_STR", "pIC50"],
 "data": [
  ["Cc1ccc(/C=C2/S/C(=N\\c3nc4cc(-c5ccc(Cl)cc5)sc4s3)NC2=O)cc1", 5.08],
  ["O=C1N/C(=N/c2nc3cc(-c4ccc(Cl)cc4)sc3s2)S/C1=C/c1ccc2ccccc2c1", 5.14],
  ["COc1ccc(/C=C2/S/C(=N\\c3nc4cc(-c5ccc(Cl)cc5)sc4s3)NC2=O)cc1", 5.21],
  ["O=C1N/C(=N/c2nc3cc(-c4ccc(Cl)cc4)sc3s2)S/C1=C/c1ccc(F)cc1", 5.11]
]}

----------
Biological target: M-phase inducer phosphatase 3 (Homo sapiens) (UniProt P30307)
Sequence (whole entry): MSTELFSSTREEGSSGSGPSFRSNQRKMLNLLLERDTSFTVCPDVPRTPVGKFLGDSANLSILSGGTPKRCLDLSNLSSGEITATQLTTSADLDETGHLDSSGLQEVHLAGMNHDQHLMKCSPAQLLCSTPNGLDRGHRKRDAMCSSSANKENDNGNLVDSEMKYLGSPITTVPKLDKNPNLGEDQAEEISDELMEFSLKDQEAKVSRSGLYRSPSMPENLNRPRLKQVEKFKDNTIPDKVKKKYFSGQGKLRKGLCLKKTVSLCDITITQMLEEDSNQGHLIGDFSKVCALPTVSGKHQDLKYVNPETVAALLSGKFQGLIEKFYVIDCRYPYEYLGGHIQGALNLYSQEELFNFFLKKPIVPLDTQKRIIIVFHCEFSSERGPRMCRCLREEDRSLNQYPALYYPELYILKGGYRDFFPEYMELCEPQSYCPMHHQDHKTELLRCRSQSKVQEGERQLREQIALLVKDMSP
Assay: Inhibition of human recombinant full length GST-tagged CDC25C transfected in Escherichia coli BL21-DE3 using 3-O-methylfluorescein phosphate as substrate at 10 uM incubated for 20 mins followed by substrate addition measured every 10 mins for 2 hrs by fluorimetric assay
ASSAY_METRIC: inhibition (%)

{"columns": ["SMILES_STR", "TESTED_SYSTEM", "ASSAY_METRIC", "NUMERIC_VALUE"],
 "data": [
  ["Cc1ccc(/C=C2/S/C(=N\\c3nc4cc(-c5ccc(Cl)cc5)sc4s3)NC2=O)cc1", "M-phase inducer phosphatase 3 (Homo sapiens) (UniProt P30307)", "inhibition", 23.3],
  ["O=C1CS/C(=N\\c2nc3cc(-c4ccc(Cl)cc4)sc3s2)N1", "M-phase inducer phosphatase 3 (Homo sapiens) (UniProt P30307)", "inhibition", 16.4],
  ["O=C1C=CC(=O)c2ccccc21", "M-phase inducer phosphatase 3 (Homo sapiens) (UniProt P30307)", "inhibition", 99.2],
  ["COc1ccc(/C=C2/S/C(=N\\c3nc4cc(-c5ccc(Cl)cc5)sc4s3)NC2=O)cc1", "M-phase inducer phosphatase 3 (Homo sapiens) (UniProt P30307)", "inhibition", 24],
  ["O=C1N/C(=N/c2nc3cc(-c4ccc(Cl)cc4)sc3s2)S/C1=C/c1ccc2ccccc2c1", "M-phase inducer phosphatase 3 (Homo sapiens) (UniProt P30307)", "inhibition", 22.6],
  ["O=C1CS/C(=N\\c2nc3cc(-c4ccc(Cl)cc4)[se]c3s2)N1", "M-phase inducer phosphatase 3 (Homo sapiens) (UniProt P30307)", "inhibition", 15.6],
  ["O=C1N/C(=N/c2nc3cc(-c4ccc(Cl)cc4)sc3s2)S/C1=C/c1ccc(F)cc1", "M-phase inducer phosphatase 3 (Homo sapiens) (UniProt P30307)", "inhibition", 15.5],
  ["O=C1N/C(=N/c2nc3cc(-c4ccc(Br)cc4)sc3s2)S/C1=C/c1ccc(Cl)cc1", "M-phase inducer phosphatase 3 (Homo sapiens) (UniProt P30307)", "inhibition", 6.1]
]}

----------
The entries below are paired with their reported growth inhibition (GI).
Test system: MCF7
Experiment: Cytotoxicity against human MCF7 cells assessed as inhibition of cell growth at IC50 concentration after 72 hrs by trypan blue assay
Type: functional

{"columns": ["SMILES_STR", "growth inhibition (GI)"],
 "data": [
  ["O=C1N/C(=N/c2nc3cc(-c4ccc(Br)cc4)sc3s2)S/C1=C/c1ccc(Cl)cc1", "25%"],
  ["COc1ccc(/C=C2/S/C(=N\\c3nc4cc(-c5ccc(Cl)cc5)sc4s3)NC2=O)cc1", "45%"],
  ["O=C1N/C(=N/c2nc3cc(-c4ccc(Cl)cc4)sc3s2)S/C1=C/c1ccc(F)cc1", "60%"]
]}

----------
Target: M-phase inducer phosphatase 1 (Homo sapiens)
Assay: Mixed type inhibition of human recombinant full length GST-tagged CDC25A transfected in Escherichia coli BL21-DE3 assessed as enzyme/substrate/inhibitor complex using 3-O-methylfluorescein phosphate as substrate at 10 uM incubated for 20 mins followed by substrate addition measured every 10 mins for 2 hrs by fluorimetric assay
ASSAY_METRIC: Ki (µM)

{"columns": ["SMILES_STR", "NUMERIC_VALUE"],
 "data": [
  ["COc1ccc(/C=C2/S/C(=N\\c3nc4cc(-c5ccc(Cl)cc5)sc4s3)NC2=O)cc1", 5.1]
]}

----------
Biological target: M-phase inducer phosphatase 1 (Homo sapiens)
Assay: Inhibition of human recombinant full length GST-tagged CDC25A transfected in Escherichia coli BL21-DE3 using 3-O-methylfluorescein phosphate as substrate at 10 uM incubated for 20 mins followed by substrate addition measured every 10 mins for 2 hrs by fluorimetric assay
ASSAY_METRIC: inhibition (%)

{"columns": ["SMILES_STR", "NUMERIC_VALUE"],
 "data": [
  ["O=C1N/C(=N/c2nc3cc(-c4ccc(Cl)cc4)sc3s2)S/C1=C/c1ccc(F)cc1", 65.6],
  ["O=C1N/C(=N/c2nc3cc(-c4ccc(Cl)cc4)sc3s2)S/C1=C/c1ccc2ccccc2c1", 67],
  ["O=C1C=CC(=O)c2ccccc21", 79.7],
  ["COc1ccc(/C=C2/S/C(=N\\c3nc4cc(-c5ccc(Cl)cc5)sc4s3)NC2=O)cc1", 70.3],
  ["Cc1ccc(/C=C2/S/C(=N\\c3nc4cc(-c5ccc(Cl)cc5)sc4s3)NC2=O)cc1", 68.1],
  ["O=C1CS/C(=N\\c2nc3cc(-c4ccc(Cl)cc4)sc3s2)N1", 6.8],
  ["O=C1CS/C(=N\\c2nc3cc(-c4ccc(Cl)cc4)[se]c3s2)N1", 4.2],
  ["O=C1N/C(=N/c2nc3cc(-c4ccc(Br)cc4)sc3s2)S/C1=C/c1ccc(Cl)cc1", 28.4]
]}

----------
Molecular target: M-phase inducer phosphatase 2 (Homo sapiens)
Sequence (whole entry): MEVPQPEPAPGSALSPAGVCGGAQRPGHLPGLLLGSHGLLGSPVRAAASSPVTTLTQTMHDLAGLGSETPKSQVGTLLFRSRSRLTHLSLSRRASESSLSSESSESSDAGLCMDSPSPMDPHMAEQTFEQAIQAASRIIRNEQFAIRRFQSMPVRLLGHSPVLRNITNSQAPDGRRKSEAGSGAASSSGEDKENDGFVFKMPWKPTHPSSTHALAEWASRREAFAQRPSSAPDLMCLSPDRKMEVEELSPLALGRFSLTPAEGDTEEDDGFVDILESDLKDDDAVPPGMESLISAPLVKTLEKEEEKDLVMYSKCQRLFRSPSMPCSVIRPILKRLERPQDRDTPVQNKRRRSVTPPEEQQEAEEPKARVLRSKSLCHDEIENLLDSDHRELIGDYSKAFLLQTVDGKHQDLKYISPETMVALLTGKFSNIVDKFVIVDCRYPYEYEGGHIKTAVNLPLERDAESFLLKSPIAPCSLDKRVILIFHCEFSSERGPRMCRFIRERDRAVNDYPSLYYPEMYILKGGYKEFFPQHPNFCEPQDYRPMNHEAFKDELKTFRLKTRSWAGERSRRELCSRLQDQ
Assay: Inhibition of human recombinant GST-tagged CDC25B catalytic domain transfected in Escherichia coli BL21-DE3 using 3-O-methylfluorescein phosphate as substrate at 10 uM incubated for 20 mins followed by substrate addition measured every 10 mins for 2 hrs by fluorimetric assay

{"columns": ["SMILES_STR", "inhibition, %"],
 "data": [
  ["O=C1N/C(=N/c2nc3cc(-c4ccc(Cl)cc4)sc3s2)S/C1=C/c1ccc2ccccc2c1", 27.3],
  ["Cc1ccc(/C=C2/S/C(=N\\c3nc4cc(-c5ccc(Cl)cc5)sc4s3)NC2=O)cc1", 24.2],
  ["O=C1C=CC(=O)c2ccccc21", 71.2],
  ["O=C1CS/C(=N\\c2nc3cc(-c4ccc(Cl)cc4)[se]c3s2)N1", 17.4],
  ["O=C1N/C(=N/c2nc3cc(-c4ccc(Cl)cc4)sc3s2)S/C1=C/c1ccc(F)cc1", 35.4],
  ["O=C1CS/C(=N\\c2nc3cc(-c4ccc(Cl)cc4)sc3s2)N1", 21.6],
  ["O=C1N/C(=N/c2nc3cc(-c4ccc(Br)cc4)sc3s2)S/C1=C/c1ccc(Cl)cc1", 3.8],
  ["COc1ccc(/C=C2/S/C(=N\\c3nc4cc(-c5ccc(Cl)cc5)sc4s3)NC2=O)cc1", 36.7]
]}
